Each record here notes measured inhibition.
molecular target: DNA-3-methyladenine glycosylase (Homo sapiens) (UniProt P29372); conditions: Compound Concentration 10.0 uM, Hit No;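 further: enzyme assay where MPG cuts a quenched duplex DNA oligonucleotide probe, paired with APE1 for strand incision and turnover, read as fluorescence at 594 nm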
Sequence (P29372 whole entry): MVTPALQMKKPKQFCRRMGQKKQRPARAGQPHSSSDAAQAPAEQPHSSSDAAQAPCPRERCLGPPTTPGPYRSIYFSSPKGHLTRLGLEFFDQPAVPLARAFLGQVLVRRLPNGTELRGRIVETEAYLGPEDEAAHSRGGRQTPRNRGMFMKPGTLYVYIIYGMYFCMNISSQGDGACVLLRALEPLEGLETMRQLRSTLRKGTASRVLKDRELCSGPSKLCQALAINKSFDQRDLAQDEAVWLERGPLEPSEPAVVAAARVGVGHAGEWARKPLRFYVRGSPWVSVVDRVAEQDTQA
Description: Inhibition of MPG by quantifying inhibition of MPG-mediated cleavage and dissociation of quenched duplex DNA oligonucleotides, measured as fluorescence at 594 nm. To generate a functional strand incision and increase turn-over this assay is coupled to APE1.
*1 amine or outer side, *2 acyl side, *3 side chain or, on linkers, in order; H or OH if unused. Where a SMILES comes first, the peptide text is derived from it. Bridges are numbered along the chain shown (N, C = ends). X1 = O=C(CCC[*:2])[*:1]
Answer shape: numeric part, then the unit.

Below, 7 molecules whose answers are already recorded.
molecule	system.under.test	quantity.kind	endpoint.value
C[S+]([O-])c1ccc(-c2nc(-c3ccc(F)cc3)c(-c3ccncc3)[nH]2)cc1 (stereo not drawn)	DNA-3-methyladenine glycosylase (Homo sapiens) (UniProt P29372)	inhibition	10.5%
COc1ccc(Br)cc1S(=O)(=O)NC(=O)/C=C/c1ccccc1Cc1ccc2ccccc2c1	DNA-3-methyladenine glycosylase (Homo sapiens) (UniProt P29372)	inhibition	-3.79%
CC[C@H](C)[C@@H]1NC(=O)[C@H](Cc2ccc(OC)cc2)NC(=O)CCCSC[C@@H](C(=O)N2CCC[C@H]2C(=O)N[C@@H](CC(C)C)C(=O)NCC(N)=O)NC(=O)[C@H](CC(N)=O)NC(=O)[C@H](CCC(N)=O)NC1=O (Y(Me)IQNCPLG-NH2; linker N-5 via X1)	DNA-3-methyladenine glycosylase (Homo sapiens) (UniProt P29372)	inhibition	-9.15%
Clc1ccc(C2CC3CCC2N3)cn1 (stereo not drawn)	DNA-3-methyladenine glycosylase (Homo sapiens) (UniProt P29372)	inhibition	-6.44%
COc1cc(NC(=O)c2ccc(-c3ccc(Cl)cc3)o2)cc(OC)c1	DNA-3-methyladenine glycosylase (Homo sapiens) (UniProt P29372)	inhibition	18%
CN[C@@H](C)C/C=C/c1cncc(OC(C)C)c1	DNA-3-methyladenine glycosylase (Homo sapiens) (UniProt P29372)	inhibition	-3.71%
Cc1cc(C)c(N)c(C#Cc2cccc(F)c2)n1	DNA-3-methyladenine glycosylase (Homo sapiens) (UniProt P29372)	inhibition	3.92%

# ---- query molecule ----
Query string: Requested field: inhibition. Item: "NC(=O)c1cc(-c2ccc(S(=O)(=O)[C@H]3CC[C@H](Nc4ccc(C(F)(F)F)cn4)CC3)cc2)ccn1"
Result string: -6.62%
